Provenance of the data: patent US12319679B2

- measurementTarget: Recombinant full length human OGA enzyme (Homo sapiens, UniProt O60502)
- Construct: Recombinant full length human OGA enzyme was purchased from Origene; purchased Origene
- Sequence (O60502 1-916): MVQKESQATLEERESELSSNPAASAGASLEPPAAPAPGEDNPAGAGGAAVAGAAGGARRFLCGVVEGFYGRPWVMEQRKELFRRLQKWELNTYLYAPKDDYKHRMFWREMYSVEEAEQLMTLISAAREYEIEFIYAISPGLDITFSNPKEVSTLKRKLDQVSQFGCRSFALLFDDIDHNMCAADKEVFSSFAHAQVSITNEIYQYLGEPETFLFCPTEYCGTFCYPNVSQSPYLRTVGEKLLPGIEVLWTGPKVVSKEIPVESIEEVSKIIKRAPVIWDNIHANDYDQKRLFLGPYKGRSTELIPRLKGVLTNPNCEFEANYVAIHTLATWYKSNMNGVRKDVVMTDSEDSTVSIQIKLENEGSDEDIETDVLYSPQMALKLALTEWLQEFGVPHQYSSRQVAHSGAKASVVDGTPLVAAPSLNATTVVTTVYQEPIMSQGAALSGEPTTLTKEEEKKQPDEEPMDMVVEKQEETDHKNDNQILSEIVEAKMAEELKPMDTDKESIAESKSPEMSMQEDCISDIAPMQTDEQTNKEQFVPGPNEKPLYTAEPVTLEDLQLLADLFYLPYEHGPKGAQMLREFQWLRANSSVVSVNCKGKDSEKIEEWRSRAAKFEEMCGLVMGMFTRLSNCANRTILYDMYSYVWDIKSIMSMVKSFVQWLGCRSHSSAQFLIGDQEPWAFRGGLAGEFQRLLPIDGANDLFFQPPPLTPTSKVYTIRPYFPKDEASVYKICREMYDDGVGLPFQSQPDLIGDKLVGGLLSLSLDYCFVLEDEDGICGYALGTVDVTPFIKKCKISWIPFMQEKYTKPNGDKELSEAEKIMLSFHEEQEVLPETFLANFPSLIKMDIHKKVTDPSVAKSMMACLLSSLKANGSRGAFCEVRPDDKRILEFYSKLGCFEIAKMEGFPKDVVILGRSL
- experimentalDetails: OGA Enzyme Inhibition Biochemical Assay
- measurementSetup: 1 nM OGA, 100 μM 4-MUGlcNAc (Km), pH 6.4, 90 minutes at room temperature; 10-point dose-response starting from 20 μM
measuredQuantity: IC50 (nM)

1. CC(=O)Nc1ncc(CN2CCCOC(Cc3ncc(F)cn3)C2)s1 (single isomer, unassigned) [Example 1-39 Peak 2] | 760
2. CC(=O)Nc1ncc(CN2C[C@H](Cc3ncc(F)cn3)OC[C@@H]2C)s1 | 150
3. CC(=O)Nc1ncc(CN2CCO[C@H](Cc3ccnc(OCC(F)(F)F)c3)C2)s1 | 160
4. COc1cc(C[C@@H]2CN(Cc3cnc(NC(C)=O)s3)CCO2)ccn1 | 43
